Cited source: patent US20230416363A1

measurement.target: T1, mPD-1-Fc (mouse; human, UniProt Q02242 25-167, limits assumed)
T1 construct: domain: IgV domain; not shown: human IgG1 Fc
T1 sequence (looked up): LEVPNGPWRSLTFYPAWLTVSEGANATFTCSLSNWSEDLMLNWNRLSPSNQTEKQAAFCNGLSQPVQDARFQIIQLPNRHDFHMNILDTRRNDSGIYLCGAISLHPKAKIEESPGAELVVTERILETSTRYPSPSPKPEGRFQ
assay.procedure: SPR Biacore, mPD1-Fc
observable: koff (s⁻¹)

{"columns": ["binder", "observable", "observed.result"],
 "data": [
  ["R3A9 (antibody, V domains shown, also called 7115A; mPD1 parental (R3A9)) VH: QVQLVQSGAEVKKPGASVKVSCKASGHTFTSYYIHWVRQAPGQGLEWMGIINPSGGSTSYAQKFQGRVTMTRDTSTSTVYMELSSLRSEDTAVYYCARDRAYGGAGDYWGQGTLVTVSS VL: DIQMTQSPSSLSASVGDRVTITCRASQSVGTWLAWYQQKPGKAPKLLIYSASTLQSGVPSRFSGSGSGTDFTLTISSLQPEDFATYYCQQSYSAPLTFGGGTKVEIK", "koff", 0.0014],
  ["m2C1 (antibody, V domains shown, R3A9 derivative; also called m3CM (apparent misprint)) VH: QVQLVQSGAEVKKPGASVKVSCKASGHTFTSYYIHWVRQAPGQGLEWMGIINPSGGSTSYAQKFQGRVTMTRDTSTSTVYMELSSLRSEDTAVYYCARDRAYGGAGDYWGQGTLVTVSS VL: DIQMTQSPSSLSASVGDRVTITCRASRSISSWLAWYQQKPGKAPKLLIYAASSLQSGVPSRFSGSGSGTDFTLTISSLQPEDFATYYCQQSYSIPATFGQGTKVEIK", "koff", 0.000583],
  ["m2A1 (antibody, V domains shown, R3A9 derivative; also called m2AM (apparent misprint)) VH: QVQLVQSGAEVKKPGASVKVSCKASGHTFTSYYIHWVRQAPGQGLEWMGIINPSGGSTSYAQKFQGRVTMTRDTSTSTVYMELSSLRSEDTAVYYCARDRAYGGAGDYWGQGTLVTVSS VL: DIQMTQSPSSLSASVGDRVTITCRASRGISSWLAWYQQKPGKAPKLLIYAASSLQSGVPSRFSGSGSGTDFTLTISSLQPEDFATYYCQQSYSPPWTFGQGTKVEIK", "koff", 0.000905],
  ["m3A7 (antibody, V domains shown, R3A9 derivative; also called 7115C) VH: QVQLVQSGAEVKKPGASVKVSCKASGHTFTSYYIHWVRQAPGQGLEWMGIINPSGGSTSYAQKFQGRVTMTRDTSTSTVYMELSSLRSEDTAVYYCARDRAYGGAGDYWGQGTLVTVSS VL: DIQMTQSPSSLSASVGDRVTITCRASRSISNWLAWYQQKPGKAPKLLIYAASSLQSGVPSRFSGSGSGTDFTLTISSLQPEDFATYYCQQSYSAPVTFGQGTKVEIK", "koff", 0.000659]
]}
